Assignment: determine reported pIC50 for the given molecules.
Remember the convention: pIC50 equals -log10 of concentration in molar.

Record COc1cc2c(Oc3ccc(NC(=O)NN4C(=O)CSC4c4c(F)cccc4F)cc3F)ccnc2cc1OC1CCN(C(=O)COC(C)=O)CC1 (centres unmarked) [Compound 10g] : what is its pIC50 with MST1R (Homo sapiens)? 6.96

Record COc1cc2c(Oc3ccc(NC(=O)NN4C(=O)CSC4c4c(F)cccc4F)cc3F)ccnc2cc1OC1CCN(C(=O)CN(C)C)CC1 (centres unmarked) [Compound 10d] : what is its pIC50 with MST1R (Homo sapiens)? 6.36

Record COc1cc2c(Oc3ccc(NC(=O)NN4C(=O)CSC4c4c(F)cccc4F)cc3F)ccnc2cc1OC1CCN(CC(=O)N2CCOCC2)CC1 (centres unmarked) [Compound 10f] : what is its pIC50 with MST1R (Homo sapiens)? 7.11

Record CNC(=O)CN1CCC(Oc2cc3nccc(Oc4ccc(NC(=O)NN5C(=O)CSC5c5c(F)cccc5F)cc4F)c3cc2OC)CC1 (centres unmarked) [Compound 10c] : what is its pIC50 with MST1R (Homo sapiens)? 7.14

Record COc1cc2c(Oc3ccc(NC(=O)NN4C(=O)CSC4c4c(F)cccc4F)cc3F)ccnc2cc1OC1CCN(C(=O)CO)CC1 (centres unmarked) [Compound 10h] : what is its pIC50 with MST1R (Homo sapiens)? 6.80

Record COCC(=O)N1CCC(Oc2cc3nccc(Oc4ccc(NC(=O)NN5C(=O)CSC5c5c(F)cccc5F)cc4F)c3cc2OC)CC1 (centres unmarked) [Compound 10b] : what is its pIC50 with MST1R (Homo sapiens)? 7.07

Record COc1cc2c(Oc3ccc(NC(=O)NN4C(=O)CSC4c4c(F)cccc4F)cc3F)ccnc2cc1OC1CCN(CC(N)=O)CC1 (centres unmarked) [Compound 10a] : what is its pIC50 with MST1R (Homo sapiens)? 7.35

Record CCN(CC)C(=O)N1CCC(Oc2cc3nccc(Oc4ccc(NC(=O)NN5C(=O)CSC5c5c(F)cccc5F)cc4F)c3cc2OC)CC1 (centres unmarked) [BC2021-104511-15i, reference compound] : what is its pIC50 with MST1R (Homo sapiens)? 6.96

###

RECORDED METRIC: IC50

Record COc1cc2c(Oc3ccc(NC(=O)NN4C(=O)CSC4c4c(F)cccc4F)cc3F)ccnc2cc1OC1CCN(CC(N)=O)CC1 (centres unmarked) [Compound 10a] : what is its IC50 with RET (Homo sapiens, UniProt P07949)? 1270 nM

Record COCC(=O)N1CCC(Oc2cc3nccc(Oc4ccc(NC(=O)NN5C(=O)CSC5c5c(F)cccc5F)cc4F)c3cc2OC)CC1 (centres unmarked) [Compound 10b] : what is its IC50 with RET (Homo sapiens, UniProt P07949)? 1520 nM

###

// pIC50 collected for PDGFRβ (Homo sapiens)
Remember the convention: pIC50 equals -log10 of concentration in molar.

Given COCC(=O)N1CCC(Oc2cc3nccc(Oc4ccc(NC(=O)NN5C(=O)CSC5c5c(F)cccc5F)cc4F)c3cc2OC)CC1 (centres unmarked) [Compound 10b] , state its recorded pIC50. 5.92

Given COc1cc2c(Oc3ccc(NC(=O)NN4C(=O)CSC4c4c(F)cccc4F)cc3F)ccnc2cc1OC1CCN(CC(N)=O)CC1 (centres unmarked) [Compound 10a] , state its recorded pIC50. 5.95

###

// pIC50 collected for VEGFR-2 (Homo sapiens, UniProt P35968)
Remember the convention: pIC50 equals -log10 of concentration in molar.

Given COc1cc2c(Oc3ccc(NC(=O)NN4C(=O)CSC4c4c(F)cccc4F)cc3F)ccnc2cc1OC1CCN(CC(N)=O)CC1 (centres unmarked) [Compound 10a] , state its recorded pIC50. 5.94

Given COCC(=O)N1CCC(Oc2cc3nccc(Oc4ccc(NC(=O)NN5C(=O)CSC5c5c(F)cccc5F)cc4F)c3cc2OC)CC1 (centres unmarked) [Compound 10b] , state its recorded pIC50. 5.63

###

RECORDED METRIC: pIC50
Remember the convention: pIC50 equals -log10 of concentration in molar.

Record COc1cc2c(Oc3ccc(NC(=O)NN4C(=O)CSC4c4c(F)cccc4F)cc3F)ccnc2cc1OC1CCN(CC(=O)N2CCOCC2)CC1 (centres unmarked) [Compound 10f] : what is its pIC50 with HGFR (Homo sapiens, UniProt P08581)? 6.85

Record CCN(CC)C(=O)N1CCC(Oc2cc3nccc(Oc4ccc(NC(=O)NN5C(=O)CSC5c5c(F)cccc5F)cc4F)c3cc2OC)CC1 (centres unmarked) [BC2021-104511-15i, reference compound] : what is its pIC50 with HGFR (Homo sapiens, UniProt P08581)? 6.57

Record COc1cc2c(Oc3ccc(NC(=O)NN4C(=O)CSC4c4c(F)cccc4F)cc3F)ccnc2cc1OC1CCN(C(=O)COC(C)=O)CC1 (centres unmarked) [Compound 10g] : what is its pIC50 with HGFR (Homo sapiens, UniProt P08581)? 6.74

Record COc1cc2c(Oc3ccc(NC(=O)NN4C(=O)CSC4c4c(F)cccc4F)cc3F)ccnc2cc1OC1CCN(CC(N)=O)CC1 (centres unmarked) [Compound 10a] : what is its pIC50 with HGFR (Homo sapiens, UniProt P08581)? 6.96

Record COc1cc2c(Oc3ccc(NC(=O)NN4C(=O)CSC4c4c(F)cccc4F)cc3F)ccnc2cc1OC1CCN(C(=O)CN(C)C)CC1 (centres unmarked) [Compound 10d] : what is its pIC50 with HGFR (Homo sapiens, UniProt P08581)? 6.05

Record COCC(=O)N1CCC(Oc2cc3nccc(Oc4ccc(NC(=O)NN5C(=O)CSC5c5c(F)cccc5F)cc4F)c3cc2OC)CC1 (centres unmarked) [Compound 10b] : what is its pIC50 with HGFR (Homo sapiens, UniProt P08581)? 6.74

Record COc1cc2c(Oc3ccc(NC(=O)NN4C(=O)CSC4c4c(F)cccc4F)cc3F)ccnc2cc1OC1CCN(C(=O)CO)CC1 (centres unmarked) [Compound 10h] : what is its pIC50 with HGFR (Homo sapiens, UniProt P08581)? 6.66

Record CNC(=O)CN1CCC(Oc2cc3nccc(Oc4ccc(NC(=O)NN5C(=O)CSC5c5c(F)cccc5F)cc4F)c3cc2OC)CC1 (centres unmarked) [Compound 10c] : what is its pIC50 with HGFR (Homo sapiens, UniProt P08581)? 6.85

###

// IC50 collected for c-Src (Homo sapiens)
Write the answer as a number in µM, unit excluded.

Given COc1cc2c(Oc3ccc(NC(=O)NN4C(=O)CSC4c4c(F)cccc4F)cc3F)ccnc2cc1OC1CCN(CC(N)=O)CC1 (centres unmarked) [Compound 10a] , state its recorded IC50. 0.42

Given COCC(=O)N1CCC(Oc2cc3nccc(Oc4ccc(NC(=O)NN5C(=O)CSC5c5c(F)cccc5F)cc4F)c3cc2OC)CC1 (centres unmarked) [Compound 10b] , state its recorded IC50. 0.69

###

Assignment: determine reported pIC50 for the given molecules.
Remember the convention: pIC50 equals -log10 of concentration in molar.

Record COc1cc2c(Oc3ccc(NC(=O)NN4C(=O)CSC4c4c(F)cccc4F)cc3F)ccnc2cc1OC1CCN(CC(N)=O)CC1 (centres unmarked) [Compound 10a] : what is its pIC50 with UniProt P00519? 5.77

Record COCC(=O)N1CCC(Oc2cc3nccc(Oc4ccc(NC(=O)NN5C(=O)CSC5c5c(F)cccc5F)cc4F)c3cc2OC)CC1 (centres unmarked) [Compound 10b] : what is its pIC50 with UniProt P00519? 5.48
